System: Entamoeba histolytica HM1: IMSS c16 strain
Assay: Inhibition of proliferation of Entamoeba histolytica, anaerobic culture in 96-well plate, 72 hours, WST-1 (Example 2)
Assay type: cell-based
Details: Entamoeba histolytica, 0.25 to 20 μM, anaerobic culture, read-out: IC50 (concentration required to inhibit proliferation by 50% compared to untreated controls)
Counter-ions that a name gives are not always drawn.
Recorded measurements of pIC50, one per entry
pIC50 is a log-scale quantity: -log10 of the concentration expressed in molar.

Example results:
1) Cl.N[C@@H](CCSC(F)(F)F)C(=O)Nc1ccc(F)cc1F	5.26
2) COc1cc(NC(=O)[C@@H](N)CCSC(F)(F)F)cc(OC)c1OC [SK336, hydrochloride]	5.77
3) Cl.N[C@@H](CCSC(F)(F)F)C(=O)Nc1ccccc1 [SK258, hydrochloride]	5.60

Request: I would be grateful if you could share the reported pIC50 for "COc1cc(NC(=O)[C@@H](N)CCSC(F)(F)F)cc(OC)c1.Cl" .
Response: 5.80

Request: Which value of pIC50 has been reported for "Cl.N[C@@H](CCSC(F)(F)F)C(=O)Nc1ccc(Br)cc1" in the records?
Response: 4.93

Request: Please look up its pIC50: Cl.N[C@@H](CCSC(F)(F)F)C(=O)NCc1ccccc1 [SK254, hydrochloride]
Response: 5.60

Request: Record request: pIC50 value, item N[C@@H](CCSC(F)(F)F)C(=O)O [TFM, trifluoromethionine, reference compound]
Response: 4.76

====

Reported IC50 values for the following compounds.
System: Entamoeba histolytica HM1: IMSS c16 strain
Assay: Inhibition of proliferation of Entamoeba histolytica, anaerobic culture in 96-well plate, 72 hours, WST-1 (Example 2)
Type: cell-based
Details: Entamoeba histolytica, 0.25 to 20 μM, anaerobic culture, read-out: IC50 (concentration required to inhibit proliferation by 50% compared to untreated controls)
Where a name gives a salt, the structure may show the parent alone.
Please don't drop the unit; write it after the number.

1. COc1ccc(NC(=O)[C@@H](N)CCSC(F)(F)F)cc1OC.Cl [SK337, hydrochloride]	1.5 µM
2. N[C@@H](CCSC(F)(F)F)C(=O)NC1CCc2ccccc21 (stereo partly shown) [SK276, hydrochloride]	6.8 µM
3. N[C@@H](CSC(F)(F)F)C(=O)NCc1ccccc1 [SK316, hydrochloride]	8.9 µM

Below: the item to evaluate.
Request: Would you kindly share the measured IC50 for NC(CSC(F)(F)F)C(=O)Nc1ccccc1 (stereo in doubt) [KO10, hydrochloride] ?
Response: 13.7 µM

meta.source: patent US7868206B2
